target: guinea pig NK1 receptor (guinea pig) (UniProt P30547); experiment: cell-based or functional assay
Sequence (P30547 whole entry): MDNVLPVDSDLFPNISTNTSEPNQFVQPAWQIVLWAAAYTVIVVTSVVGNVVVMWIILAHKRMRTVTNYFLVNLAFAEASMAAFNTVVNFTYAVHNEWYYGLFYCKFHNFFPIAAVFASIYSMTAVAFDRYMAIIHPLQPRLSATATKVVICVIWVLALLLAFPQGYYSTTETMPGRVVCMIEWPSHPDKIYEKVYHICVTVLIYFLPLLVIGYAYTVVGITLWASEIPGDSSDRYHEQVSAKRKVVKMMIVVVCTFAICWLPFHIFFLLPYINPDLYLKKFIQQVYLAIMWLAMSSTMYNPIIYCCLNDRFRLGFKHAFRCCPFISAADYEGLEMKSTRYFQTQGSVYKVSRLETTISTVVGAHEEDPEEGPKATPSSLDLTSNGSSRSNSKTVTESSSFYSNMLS
Square brackets hold non-standard residues; d marks the D form. Primed or numbered codes have the meaning given here. Ends that are not written are not given here. O‑Bzl(CF3)2 = C-terminal bis(trifluoromethyl)benzyl ester; O‑Bzl(CF3)2(3) = C-terminal O-Bzl(CF3)2 ester; Abu = CC[C@H](N)C(=O)O; GABA = NCCCC(=O)O; βAla = NCCC(=O)O
parameter: log10(GPI/LMMP SP antagonist Ke) (log10 of the value in nM)

[
  {
    "binder": "Y[dA]GFGW-{O‑Bzl(CF3)2(3)} [Tyr-DAla-Gly-Phe-Gly-Trp-O-Bzl(CF3)2 (NP30)]",
    "parameter": "log10(GPI/LMMP SP antagonist Ke)",
    "reported": 1.77
  },
  {
    "binder": "Y[dA]GF[βAla]W-{O‑Bzl(CF3)2(3)} [Tyr-DAla-Gly-Phe-β-Ala-Trp-O-Bzl(CF3)2 (NP32)]",
    "parameter": "log10(GPI/LMMP SP antagonist Ke)",
    "reported": 2.40
  },
  {
    "binder": "Y[dA]GF[Abu]W-{O‑Bzl(CF3)2(3)} [Tyr-DAla-Gly-Phe-α-Abu-Trp-O-Bzl(CF3)2 (NP33)]",
    "parameter": "log10(GPI/LMMP SP antagonist Ke)",
    "reported": 0.75
  },
  {
    "binder": "Y[dA]GF[dA]W-{O‑Bzl(CF3)2(3)} [Tyr-DAla-Gly-Phe-D-Ala-Trp-O-Bzl(CF3)2 (NP40)]",
    "parameter": "log10(GPI/LMMP SP antagonist Ke)",
    "reported": 2.78
  },
  {
    "binder": "Y[dA]GFPW-{O‑Bzl(CF3)2} [Tyr-DAla-Gly-Phe-Pro-Trp-O-Bzl(CF3)2 (NP39)]",
    "parameter": "log10(GPI/LMMP SP antagonist Ke)",
    "reported": 0.26
  },
  {
    "binder": "Y[dA]GFMW-{O‑Bzl(CF3)2} [Tyr-DAla-Gly-Phe-Met-Trp-O-Bzl(CF3)2 (NP38)]",
    "parameter": "log10(GPI/LMMP SP antagonist Ke)",
    "reported": 0.30
  },
  {
    "binder": "Y[dA]GFAW-{O‑Bzl(CF3)2(3)} [Tyr-DAla-Gly-Phe-Ala-Trp-O-Bzl(CF3)2 (NP31)]",
    "parameter": "log10(GPI/LMMP SP antagonist Ke)",
    "reported": 1.27
  },
  {
    "binder": "Y[dA]GF[GABA]W-{O‑Bzl(CF3)2(3)} [Tyr-DAla-Gly-Phe-γ-Abu-Trp-O-Bzl(CF3)2 (NP34)]",
    "parameter": "log10(GPI/LMMP SP antagonist Ke)",
    "reported": -0.02
  }
]
